protocol.description: yeast display, Sf9 membrane polyspecificity reagent, FACS + sequencing; frameworks hold sequencing errors

[
  {
    "seq.text": "QVQLVESGGGLVQAGGSLRLSCAASGFIFYYNAMGWSRQAPGKERELVASISRDCGRTYYADSVKGRFTISRDNAKNTVYLQMNSLKPEDTAVYYCAKKRINSRKYDYWGQGPQVTVSS",
    "polyreactivity (PSR sort gate)": "low polyreactivity"
  },
  {
    "seq.text": "QVQLVESGGGLDQAGGSLLLSCAASGSIFNDYAMGWYRQAPGKERELVAAISTSDGSTYYADSVKGRFTISRDNAKNTVYLQMKSLKPEDTAVYYCAVVSDYYYYPPYGYWGQGTQVTVSS",
    "polyreactivity (PSR sort gate)": "low polyreactivity"
  },
  {
    "seq.text": "QVQLVESGGGLVQAGGSLRLSCAASGSIFGAYAMGRYRQAPGKERELVAAITSGGSTNYADSVKGRFTISRDNAKNTVYLQMNSLKPEDTADYYCAARRRYAKFRYDYWGQGTQVTVSS",
    "polyreactivity (PSR sort gate)": "high polyreactivity"
  },
  {
    "seq.text": "QDQLVESGGGLVQAGGSLRLSCAASGSTFQENAMGWYRQAPGKEREFVAAISGSGGSTYYADSVKGRFTISRDNAKNSVYLQMNSLKPEDTAVYYCAAYVTGYVNTVGSGWLVWGVDFWGQGTQVTVSS",
    "polyreactivity (PSR sort gate)": "low polyreactivity"
  },
  {
    "seq.text": "QVQLVESGGGLVQAGGSLRLSCAASGSIFAKYAMGWYRQAPGKDREFVAAIRASGGRTYYADSVKGRFTISRDTAKNTVYLQMNSLKPEDSAVYYCNARKYLIPKMDYWGQGTQVTVSS",
    "polyreactivity (PSR sort gate)": "high polyreactivity"
  },
  {
    "seq.text": "QVQLVESGGGLVQAGGSLRLSCAASGRILHANAMGWYRQAPGKEREFVAAISVSGVSTYYADSVKGRFTISRDNAKNTVYLQMNSLKPEDTAVYYCNAETYSWYDYWGQGTQVTVSS",
    "polyreactivity (PSR sort gate)": "high polyreactivity"
  },
  {
    "seq.text": "QVQLVESGGGVVQAGGSLRLSCAASGSTFGHNAMGWYRQAPGKERELVAVITSGGSTYYADSVKGRFTISRDNAKNTVYLQMNSLKPEDTAVYFCATDGGNSATVRYVASDYWGQGTQVTVSS",
    "polyreactivity (PSR sort gate)": "high polyreactivity"
  },
  {
    "seq.text": "QVQLVESGGGLVQAGGSLRLSCAASGFTFSSNAMGWYRQAPGKERELVADINWSGGRTYYADSVKGRFTISRDNAKYTVYLQMNSLKPEDTAVYYCAAVLSWRQYYREYDYWGQGTQVTVSS",
    "polyreactivity (PSR sort gate)": "high polyreactivity"
  },
  {
    "seq.text": "QVQLVESGGGLDQAGGSLRLSCAPSGYTFNVYSMGWYRQAPGNESELVAGISSYGGSTYYADSVKGRFTISRDNAKNTVYIQMNSLKPEDTAVYYCAARSALYPKYESWGQGTQVTVSS",
    "polyreactivity (PSR sort gate)": "low polyreactivity"
  },
  {
    "seq.text": "QVQLVESGGGLVQAGGSLRLSCDASGFTFRVYAMGWYRQAPGKEREFVASIRSNDGRTYYADSVKGRFTISRDNAKNTVYLQLNSLKPEDTAVYYCAARYSPRGKRYDYWGQGTQVTVSS",
    "polyreactivity (PSR sort gate)": "high polyreactivity"
  },
  {
    "seq.text": "QVQLVESGGGIVQAGGSLRLSCAASGFTILRYVMGWYRQAPGKERELVAAISYSGGRTYYADSVKGRFTISRDNAKHTVYLHMNSLKPEDPAVYYCAAARPFGYPPVMKYDYWGQVTQVTVSS",
    "polyreactivity (PSR sort gate)": "high polyreactivity"
  }
]
